# EXPERIMENT DESCRIPTION: chemical genetic growth profiling, strain panel (AID 1159580);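 further: tested at 20 µM; growth read once vehicle control cultures reached saturation at 30 °C; lower values mean less growth of the strain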
# MEASUREMENT CONTEXT: S. cerevisiae deletion strains, growth OD, locus YLR039C, strain RIC1
Among all 5,500 compounds or so, about 2,000 (36%) were called active. Not shown: some 18% with an inconclusive outcome. No stated cut-off is given here; in the data, active means normalized growth mostly below about 0.91 (no sharp cut-off); inconclusive means no clear call, values can overlap the other calls; inactive means mostly above about 0.92. Some of the results follow.
Result category, one only: active, inactive

Answered examples (6):
C=C(C)C1CNC(C(=O)O)C1CC(=O)O (configuration not stated)
inactive
CC(=O)C1CCC2C3CC(=O)C4=CC(=O)CCC4(C)C3CCC12C (configuration not stated)
inactive
CC(=O)[C@H]1CCC2C3CCC4=CC(=O)CC[C@]4(C)C3CC[C@@]21C (some centres not stated)
active
C[C@]12CCC(=O)C=C1CCC1C2CC[C@@]2(C)C1CC[C@@H]2O (some centres not stated)
inactive
CCOC(=O)C(Cc1ccc(O)cc1)NC(C)=O (configuration not stated)
inactive
CCOC(=O)C(=CNc1ccccc1N1CCOCC1)C(=O)OCC
inactive

Request: Status in this test for CCOc1ccc(/C=C(\C#N)c2cccc(Cl)c2)cc1 ?
Result: inactive

Request: Status in this test for Ic1ccc(I)s1 ?
Result: inactive

Request: Status in this test for c1cncc(C2CCCCN2)c1 (configuration not stated) ?
Result: inactive

Request: Status in this test for CCOC(=O)C(=CNc1cccc(C#N)c1)C(=O)OCC ?
Result: inactive

Request: Status in this test for CCOC(=O)C1CCN(C(=S)Nc2ccccc2C(F)(F)F)CC1 ?
Result: inactive

Request: Status in this test for CC[C@H](/C=C/C(C)C1CCC2C3CCC4=CC(=O)CC[C@]4(C)C3CC[C@]12C)C(C)C (some centres not stated) ?
Result: inactive
